Source listed as patent US7094909B2.

target under test: HIV-1 protease (Q7S mutant form) (Human immunodeficiency virus type 1 group M subtype B, UniProt P04585, Q495S)
Construct: made in house
test name: HIV-1 Protease RET assay
Format: biochemical
experimental context: Ki, unit inferred
Parameter: Ki. Scope: all listed entries.
assay readout: Ki (nM)

• Cc1ccccc1CNC(=O)[C@@H]1N(C(=O)[C@@H](O)[C@H](Cc2ccccc2)NC(=O)CSc2c(C)cccc2C)CSC1(C)C = 422
• COc1cccc(CNC(=O)[C@H]2N(C(=O)[C@@H](O)[C@H](Cc3ccccc3)NC(=O)C=C(C)C)CSC2(C)C)c1 = 125
• Cc1ccccc1CCC(=O)C1N(C(=O)[C@@H](O)C(Cc2ccccc2)NC(=O)NCc2ccc(Cl)cc2)CSC1(C)C (stereo partly shown) = 8.2
• CCOC(=O)N[C@@H](Cc1ccccc1)[C@H](O)C(=O)N1CSC(C)(C)[C@H]1C(=O)NCc1ccccc1C = 0.88

---

target under test: HIV-1 protease (Q7S mutant form) (Human immunodeficiency virus type 1 group M subtype B, UniProt P04585, Q495S)
Construct: made in house
test name: HIV-1 Protease RET assay
Type: biochemical
experimental context: Ki, unit inferred
assay readout: Ki (nM)

- CCCNC(=O)C1CC(F)(F)CN1C(=O)[C@@H](O)[C@H](Cc1ccccc1)NC(=O)c1cccc(OC(C)=O)c1C (some centres unmarked): 85
- Cc1cccc(C)c1OCC(=O)N[C@@H](Cc1ccccc1)[C@H](O)C(=O)N1CSC(C)(C)[C@H]1C(=O)NC[C@H]1CCCO1: 4.2
- Cc1ccccc1CNC(=O)C1N(C(=O)[C@@H](O)C(Cc2ccccc2)NC(=O)/C=C/c2c(Cl)cccc2Cl)CSC1(C)C (some centres unmarked): 11.9
- Cc1ccccc1CNC(=O)C1N(C(=O)[C@@H](O)C(Cc2ccccc2)NC(=O)c2cnc3ccccc3c2)CSC1(C)C (some centres unmarked): 18.1
- Cc1ccccc1CNC(=O)[C@H]1N(C(=O)[C@@H](O)[C@H](Cc2ccccc2)NC(=O)C2CCCNC2)CSC1(C)C (some centres unmarked): 11.5
- Cc1c(O)cccc1C(=O)N[C@@H](Cc1ccccc1)[C@H](O)C(=O)C1CCC2(CCCC2)[C@@H]1C(=O)NC1=CCCCC1 (some centres unmarked): 53
- Cc1ccccc1CCC(=O)C1N(C(=O)[C@@H](O)C(Cc2ccccc2)NC(=O)C2CCC2)CSC1(C)C (some centres unmarked): 4.4
- Cc1ccccc1CNC(=O)[C@H]1N(C(=O)[C@@H](O)[C@H](Cc2ccccc2)NC(=O)CCCN)CSC1(C)C: 51
- Cc1ccccc1CNC(=O)[C@H]1N(C(=O)[C@@H](O)[C@H](Cc2ccccc2)NC(=O)C2=CCCCC2)CSC1(C)C: 4.7
- Cc1ccccc1CCC(=O)[C@H]1N(C(=O)[C@@H](O)[C@H](Cc2ccccc2)NC(=O)O[C@H]2CCOC2)CSC1(C)C: 0.76
- C#CCOC(=O)N[C@@H](Cc1ccccc1)[C@H](O)C(=O)N1CSC(C)(C)[C@H]1C(=O)NCCC: 4.8
- CC1(C)SCN(C(=O)[C@@H](O)[C@H](Cc2ccccc2)NC(=O)NCc2ccccc2Cl)C1C(=O)NCc1ccccc1Cl (some centres unmarked) [drawing 953]: 74
- C/C(=C/c1ccccc1)C(=O)N[C@@H](Cc1ccccc1)[C@H](O)C(=O)N1CSC(C)(C)[C@H]1C(=O)NCc1ccccc1C: 5
- C=CC(CC)OC(=O)N[C@@H](Cc1ccccc1)[C@H](O)C(=O)N1CSC(C)(C)[C@H]1C(=O)NCc1ccccc1C (some centres unmarked): 92
- Cc1ccc(C(=O)N[C@@H](Cc2ccccc2)[C@H](O)C(=O)N2CSC(C)(C)[C@H]2C(=O)NCc2cccs2)c(C)c1O: 0.39
- CCNC(=O)C1c2ccccc2CN1C(=O)[C@@H](O)[C@H](Cc1ccccc1)NC(=O)c1c(C)noc1C (some centres unmarked): 84
- Cc1ccccc1CNC(=O)[C@H]1N(C(=O)[C@@H](O)[C@H](Cc2ccccc2)NC(=O)OCc2ccccc2)CSC1(C)C: 1.4
- Cc1ccccc1CNC(=O)[C@H]1N(C(=O)[C@@H](O)[C@H](Cc2ccccc2)NC(=O)COc2c(C)cc(Cl)cc2C)CSC1(C)C: 0.38
- Cc1c(O)cccc1C(=O)N[C@@H](Cc1ccccc1)[C@H](O)C(=O)N1CSC2(CCC2)[C@@H]1C(=O)N[C@@H]1C=CCCC1: 12.9
- Cc1ccccc1CNC(=O)[C@H]1N(C(=O)[C@@H](O)[C@H](Cc2ccccc2)NC(=O)Cc2c(F)cccc2F)CSC1(C)C: 72
- Cc1ccccc1CNC(=O)[C@H]1N(C(=O)[C@@H](O)[C@H](Cc2ccccc2)NC(=O)COc2cccc3ccccc23)CSC1(C)C: 5.8
- Cc1ccccc1CNC(=O)[C@H]1N(C(=O)[C@@H](O)[C@H](Cc2ccccc2)NC(=O)COc2cccc3cnccc23)CSC1(C)C: 21
- Cc1ccccc1CNC(=O)[C@@H]1CC(F)(F)CN1C(=O)[C@@H](O)[C@H](Cc1ccccc1)NC(=O)c1cccn1C: 59
- CC(C)(C)OC(=O)N[C@@H](Cc1ccccc1)[C@H](O)C(=O)N1CSC(C)(C)C1C(=O)NCc1ccccc1Cl (some centres unmarked): 20
- Cc1ccccc1CNC(=O)[C@H]1N(C(=O)[C@@H](O)[C@H](Cc2ccccc2)NC(=O)/C=C/c2cccnc2)CSC1(C)C: 9.9
- CCCOC(=O)N[C@@H](Cc1ccccc1)[C@H](O)C(=O)N1CSC(C)(C)[C@H]1C(=O)NCc1ccccc1C: 1.1
- Cc1ccccc1CNC(=O)[C@H]1N(C(=O)[C@@H](O)[C@H](Cc2ccccc2)NC(=O)COc2cc(N(C)C)ccc2C)CSC1(C)C: 8.1
- Cc1ccccc1CNC(=O)[C@@H]1N(C(=O)[C@@H](O)[C@H](Cc2ccccc2)NC(=O)c2cccc(O)c2C)CSC12CCCC2: 0.34

---

target under test: HIV-1 protease (Q7S mutant form) (Human immunodeficiency virus type 1 group M subtype B, UniProt P04585, Q495S)
Construct: made in house
test name: HIV-1 Protease RET assay
Format: biochemical
experimental context: Ave. Ki (nM), RET assay, Q7S enzyme, Morrison tight binding fit
Field 'label' (enum: Yes / No). Set to Yes when Ki is strictly under 2 nM; else No.

- C=CCOC(=O)N[C@@H](Cc1ccccc1)[C@H](O)C(=O)N1CSC(C)(C)[C@H]1C(=O)NCc1c(F)cccc1F: No
- CCC(C)C(=O)NC(Cc1ccccc1)C(O)C(=O)N1CSC(C)(C)[C@H]1C(=O)NCc1ccccc1C (stereo partly shown): No
- Cc1ccccc1CNC(=O)[C@H]1N(C(=O)[C@@H](O)[C@H](Cc2ccccc2)NC(=O)c2cccc(O)c2C)CC(F)(F)C1(C)C: Yes
- C#CCOC(=O)N[C@@H](Cc1ccccc1)[C@H](O)C(=O)N1CSC(C)(C)[C@H]1C(=O)NCc1ccccc1C(F)(F)F: No
- Cc1c(O)cccc1C(=O)N[C@@H](Cc1ccccc1)[C@H](O)C(=O)N1CSC(C)(C)[C@H]1C(=O)N[C@@H]1CCc2ncccc21: Yes
- Cc1c(F)cccc1CNC(=O)[C@@H]1CC(F)(F)CN1C(=O)[C@@H](O)[C@H](Cc1ccccc1)NC(=O)c1cccc(O)c1C: Yes
- C=CCNC(=O)[C@H]1N(C(=O)[C@@H](O)[C@H](Cc2ccccc2)NC(=O)c2cccc3c2CCN3)CSC1(C)C: Yes
- COc1cccc(CNC(=O)N[C@@H](Cc2ccccc2)[C@H](O)C(=O)N2CSC(C)(C)[C@H]2C(=O)NCc2ccccc2C)c1: No
- Cc1ccccc1CNC(=O)[C@H]1N(C(=O)[C@@H](O)[C@H](Cc2ccccc2)NC(=O)C2CC2)CSC1(C)C: Yes
- CC1(C)SCN(C(=O)[C@@H](O)[C@H](Cc2ccccc2)NC(=O)O[C@H]2CCOC2)[C@@H]1C(=O)N[C@H]1CCCc2ccccc21: Yes
- COc1ccc(CNC(=O)[C@H]2N(C(=O)[C@@H](O)[C@H](Cc3ccccc3)NC(=O)c3cccc(O)c3C)CC(F)(F)C2(C)C)cc1: Yes
- Cc1c(O)cccc1C(=O)N[C@@H](Cc1ccccc1)[C@H](O)C(=O)N1CSC(C)(C)[C@H]1C(=O)NCc1cc2ccccc2n1C: No

---

# Ki annotations
target under test: HIV-1 protease (Q7S mutant form) (Human immunodeficiency virus type 1 group M subtype B, UniProt P04585, Q495S)
Construct: made in house
test name: HIV-1 Protease RET assay
Format: biochemical
experimental context: Ave. Ki (nM), RET assay, Q7S enzyme, Morrison tight binding fit
assay readout: Ki

* Cc1c(O)cccc1C(=O)N[C@@H](Cc1ccccc1)[C@H](O)C(=O)N1CC(F)(F)C(C)(C)[C@H]1C(=O)NCc1cccs1 | < 0.1 nM
* Cc1ccccc1CNC(=O)[C@H]1N(C(=O)C(O)C(Cc2ccccc2)NS(=O)(=O)c2ccc(C#N)cc2)CSC1(C)C (stereo partly drawn) | 240 nM
* Cc1ccccc1CNC(=O)[C@@H]1CC(F)(F)CN1C(=O)[C@@H](O)[C@H](Cc1ccccc1)NC(=O)c1cccc(O)c1C | 0.38 nM
* Cc1c(O)cccc1C(=O)N[C@@H](Cc1ccccc1)[C@H](O)C(=O)N1CSC(C)(C)[C@H]1C(=O)N[C@H]1CCSc2ccccc21 | 0.21 nM
* Cc1c(O)cccc1C(=O)N[C@@H](Cc1ccccc1)[C@H](O)C(=O)N1CSC(C)(C)[C@H]1C(=O)N[C@H]1CCc2cc(F)ccc21 | 0.27 nM
* Cc1c(O)cccc1C(=O)N[C@@H](Cc1ccccc1)[C@H](O)C(=O)N1CSC(C)(C)[C@H]1C(=O)NCC1=CCCC1 | < 0.1 nM
